Can you tell me IC50 for the items I'm about to list?
Target: Carnitine O-palmitoyltransferase 1, liver isoform (Rattus norvegicus, UniProt P32198)
Sequence (P32198 whole entry, canonical isoform): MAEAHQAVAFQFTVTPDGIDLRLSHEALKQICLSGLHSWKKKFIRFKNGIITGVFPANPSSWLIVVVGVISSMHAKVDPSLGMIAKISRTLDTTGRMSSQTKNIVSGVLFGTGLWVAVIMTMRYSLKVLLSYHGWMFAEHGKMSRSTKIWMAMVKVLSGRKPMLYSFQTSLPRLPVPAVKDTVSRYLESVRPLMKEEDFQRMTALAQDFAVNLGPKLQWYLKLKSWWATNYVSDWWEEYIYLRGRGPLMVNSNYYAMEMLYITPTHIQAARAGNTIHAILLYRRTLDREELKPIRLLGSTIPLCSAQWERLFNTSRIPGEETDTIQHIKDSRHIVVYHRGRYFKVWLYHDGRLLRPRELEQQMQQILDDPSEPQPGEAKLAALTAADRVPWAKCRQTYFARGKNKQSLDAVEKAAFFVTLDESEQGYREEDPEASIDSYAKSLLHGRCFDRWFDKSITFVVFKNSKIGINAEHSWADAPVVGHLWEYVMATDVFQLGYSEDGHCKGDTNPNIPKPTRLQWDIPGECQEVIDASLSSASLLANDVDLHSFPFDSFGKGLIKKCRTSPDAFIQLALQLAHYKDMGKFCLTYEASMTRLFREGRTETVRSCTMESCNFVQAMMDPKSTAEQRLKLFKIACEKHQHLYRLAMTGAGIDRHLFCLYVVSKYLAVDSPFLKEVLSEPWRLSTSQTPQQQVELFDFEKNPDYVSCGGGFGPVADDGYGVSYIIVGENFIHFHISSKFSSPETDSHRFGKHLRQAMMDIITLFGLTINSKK
Test: SUPPLEMENTARY: Inhibition of Carnitine palmitoyltransferase 1, liver isoform
One number for each entry, in nM.

N#Cc1cccc(-c2nc([C@H]3CCCCN3C(=O)COc3ccccc3)no2)c1 ... 412
CC(=O)Nc1cc(F)cc(-c2noc([C@H]3CCCCN3C(=O)COc3ccccc3)n2)c1 ... 131
Cc1ccnc(N2CCN(C(=O)[C@H]3CCCCN3C(=O)COc3ccccc3)CC2)c1 ... 196
O=C(NC1CC1)c1cncc(-c2noc([C@H]3CCCCN3C(=O)COc3ccccc3)n2)c1 ... 1000
Cc1cc(C)cc(S(=O)(=O)c2n[nH]c3ccc(C(=O)Nc4ccc(C(=O)O)cc4)cc23)c1 ... 26.4

Give IC50 for each listed item.
1. O=C(COc1ccccc1)N1CCCC[C@@H]1c1noc(-c2ccc(-n3cncn3)cc2)n1
2. COc1ccc(Cl)cc1S(=O)(=O)N1CCOc2c(F)cc(C(=O)Nc3ccc(C(=O)O)c(Cl)c3)cc21
3. O=C(COc1ccccc1)N1CCCC[C@@H]1c1noc(-c2cc(F)c(F)cc2F)n1
4. O=C(COc1ccccc1)N1CCOC[C@@H]1c1nc(-c2ccc3[nH]cnc3c2)no1

96.3
166
173
339
